Test system: NCI-H358
Procedure Summary: relative viability (nuclei count vs DMSO), 5 days (fraction); higher = more cells survive
Details: first compound 158.11 µM
Below is a list of entries, each paired with its recorded relative viability value.
API note: the answer field is a bare number with no unit suffix.

Before answering, review these 3 worked examples.
{"Compound": "O=C(O)CCCCC(CCSCc1ccccc1)SCc1ccccc1 (centres undefined) [CPI-613] + NC(=O)Nc1cc(-c2cccc(F)c2)sc1C(=O)N[C@H]1CCCNC1 [AZD7762] (partner 0.2 µM)", "relative viability": 0.438}
{"Compound": "O=C(O)CCCCC(CCSCc1ccccc1)SCc1ccccc1 (centres undefined) [CPI-613] + C[C@@H](Oc1cc(-c2cnn(C3CCNCC3)c2)cnc1N)c1c(Cl)ccc(F)c1Cl [Crizotinib] (partner 1 µM)", "relative viability": 0.104}
{"Compound": "O=C(O)CCCCC(CCSCc1ccccc1)SCc1ccccc1 (centres undefined) [CPI-613] + C[C@]1(O)C[C@@H](c2nc(-c3ccc4ccc(-c5ccccc5)nc4c3)c3c(N)nccn32)C1 [Linsitinib] (partner 1 µM)", "relative viability": 0.347}

Next up:
q: If you can, please state the reported relative viability value of O=C(O)CCCCC(CCSCc1ccccc1)SCc1ccccc1 (centres undefined) [CPI-613] + COc1cc2c(Oc3ccc(NC(=O)C4(C(=O)Nc5ccc(F)cc5)CC4)cc3F)ccnc2cc1OCCCN1CCOCC1 [Foretinib] (partner 0.25 µM) .
a: 0.369

Hello, the source for this data is the supplement of paper PMC10307832, in case you need it.
